Reference for the values: patent US8802700B2

Assay Target: ΔF508-CFTR (Homo sapiens, UniProt P13569, DEL508-508)
Construct: expressed in transfected cells
Sequence (P13569 with tags, fused parts or gaps DEL508-508): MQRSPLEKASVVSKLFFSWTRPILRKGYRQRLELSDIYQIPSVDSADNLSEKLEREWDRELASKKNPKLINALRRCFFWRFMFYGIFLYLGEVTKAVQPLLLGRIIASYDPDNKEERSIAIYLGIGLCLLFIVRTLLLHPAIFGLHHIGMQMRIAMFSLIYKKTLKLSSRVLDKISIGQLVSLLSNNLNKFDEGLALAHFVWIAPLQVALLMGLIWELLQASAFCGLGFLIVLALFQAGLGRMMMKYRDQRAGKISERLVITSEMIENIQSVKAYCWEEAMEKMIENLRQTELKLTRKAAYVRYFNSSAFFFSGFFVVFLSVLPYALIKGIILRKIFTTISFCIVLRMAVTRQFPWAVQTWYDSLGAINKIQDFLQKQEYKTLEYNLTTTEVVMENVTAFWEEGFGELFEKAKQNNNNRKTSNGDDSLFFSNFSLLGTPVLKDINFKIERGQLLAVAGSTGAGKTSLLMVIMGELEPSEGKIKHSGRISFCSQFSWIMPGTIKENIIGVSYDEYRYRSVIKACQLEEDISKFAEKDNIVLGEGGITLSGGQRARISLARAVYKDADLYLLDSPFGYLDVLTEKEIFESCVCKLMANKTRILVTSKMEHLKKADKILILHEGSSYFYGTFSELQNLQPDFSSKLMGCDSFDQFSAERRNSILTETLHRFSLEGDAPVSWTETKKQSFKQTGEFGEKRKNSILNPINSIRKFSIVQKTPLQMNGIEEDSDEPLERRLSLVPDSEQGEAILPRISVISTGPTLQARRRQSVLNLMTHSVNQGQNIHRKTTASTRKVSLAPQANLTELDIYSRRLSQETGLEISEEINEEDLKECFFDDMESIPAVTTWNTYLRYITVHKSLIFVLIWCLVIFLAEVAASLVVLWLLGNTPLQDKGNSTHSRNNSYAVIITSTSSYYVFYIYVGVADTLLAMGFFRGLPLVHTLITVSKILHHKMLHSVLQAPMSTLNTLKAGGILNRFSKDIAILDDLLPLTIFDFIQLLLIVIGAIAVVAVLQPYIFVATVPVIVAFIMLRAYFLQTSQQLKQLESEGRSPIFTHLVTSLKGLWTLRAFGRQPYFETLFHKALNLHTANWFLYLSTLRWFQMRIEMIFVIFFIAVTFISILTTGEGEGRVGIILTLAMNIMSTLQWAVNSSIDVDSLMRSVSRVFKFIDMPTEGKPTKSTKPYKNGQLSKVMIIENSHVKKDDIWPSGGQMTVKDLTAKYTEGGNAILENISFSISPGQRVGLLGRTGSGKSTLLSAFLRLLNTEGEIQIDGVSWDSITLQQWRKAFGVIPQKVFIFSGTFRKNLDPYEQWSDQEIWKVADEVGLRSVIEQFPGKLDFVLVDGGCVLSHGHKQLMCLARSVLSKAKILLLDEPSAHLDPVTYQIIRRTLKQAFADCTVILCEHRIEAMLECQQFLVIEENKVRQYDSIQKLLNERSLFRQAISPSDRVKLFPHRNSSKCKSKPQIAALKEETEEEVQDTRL
Assay Notes: Membrane potential optical assay (FRET voltage-sensor dyes, VIPR), identification of potentiator compounds
Format: cell-based
Test Parameters: Table 3; assay not given; read-out: % Activity (% Efficacy, relative efficacy)
Quantity Name: Emax

Solved cases (5 shown):
O=C(Nc1ccccc1N1CCOCC1)c1c[nH]c2ccccc2c1=O [Compound 4]    25 to 100%
O=C(Nc1cc(O)cc(C(F)(F)F)c1)c1c[nH]c2ccccc2c1=O [Compound 563]    25 to 100%
O=C(Nc1ccc2cc(C(F)(F)F)[nH]c2c1)c1c[nH]c2ccccc2c1=O [Compound 537]    25 to 100%
O=C(Nc1cc(Cl)ccc1F)c1c[nH]c2ccccc2c1=O [Compound 48]    25 to 100%
O=C(Nc1cc2ccccc2cn1)c1c[nH]c2ccccc2c1=O [Compound 309]    < 25%

Please tell me: Emax of O=C(Nc1ccc(N2CCC[C@@H]2CO)cc1C(F)(F)F)c1c[nH]c2ccccc2c1=O [Compound 670] , system ΔF508-CFTR (Homo sapiens, UniProt P13569, DEL508-508)?
25 to 100%

Please tell me: Emax of CNc1cccc2[nH]cc(C(=O)Nc3cc(O)c(C(C)(C)C)cc3C(C)(C)C)c(=O)c12 [Compound 542] , system ΔF508-CFTR (Homo sapiens, UniProt P13569, DEL508-508)?
> 100%
